Below is a list of entries, each paired with its recorded IC50 value.
- target_under_test: rabbit muscle glycogen phosphorylase (RMGP) (Oryctolagus cuniculus)
- Construct: gene PYGM
- Sequence (P00489 2-843): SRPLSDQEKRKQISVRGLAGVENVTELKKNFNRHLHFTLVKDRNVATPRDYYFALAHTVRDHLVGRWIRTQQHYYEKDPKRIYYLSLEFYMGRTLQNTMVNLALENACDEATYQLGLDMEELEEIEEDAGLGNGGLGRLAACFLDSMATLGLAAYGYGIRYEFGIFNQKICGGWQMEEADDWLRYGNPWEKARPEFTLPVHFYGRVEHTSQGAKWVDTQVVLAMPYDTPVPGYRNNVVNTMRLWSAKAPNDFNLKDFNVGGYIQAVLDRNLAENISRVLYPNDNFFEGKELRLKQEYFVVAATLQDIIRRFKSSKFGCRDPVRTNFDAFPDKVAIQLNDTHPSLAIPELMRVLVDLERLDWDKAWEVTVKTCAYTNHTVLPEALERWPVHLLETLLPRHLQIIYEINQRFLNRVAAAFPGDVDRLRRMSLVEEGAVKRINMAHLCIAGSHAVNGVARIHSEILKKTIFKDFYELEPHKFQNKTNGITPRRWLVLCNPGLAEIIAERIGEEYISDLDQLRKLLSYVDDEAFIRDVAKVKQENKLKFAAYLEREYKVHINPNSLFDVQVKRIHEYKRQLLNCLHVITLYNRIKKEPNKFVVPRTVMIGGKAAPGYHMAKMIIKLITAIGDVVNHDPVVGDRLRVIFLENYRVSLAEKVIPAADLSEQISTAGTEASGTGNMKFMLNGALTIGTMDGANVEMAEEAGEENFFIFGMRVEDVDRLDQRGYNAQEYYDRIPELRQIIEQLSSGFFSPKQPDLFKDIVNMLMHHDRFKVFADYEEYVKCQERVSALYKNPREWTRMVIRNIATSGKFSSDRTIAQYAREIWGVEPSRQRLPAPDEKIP
- assay: enzyme kinetics in the direction of glycogen synthesis, RMGP isolated from rabbit skeletal muscle, […] AMP
- Format: biochemical

{"structure_string": "Nc1ncc([C@@H]2O[C@H](CO)[C@@H](O)[C@H](O)[C@H]2O)c(=O)[nH]1", "IC50": "396 µM"}
{"structure_string": "O=c1[nH]c(Nc2ccc3[nH]c4ccccc4c(=O)c3c2)ncc1[C@@H]1O[C@H](CO)[C@@H](O)[C@H](O)[C@H]1O", "IC50": "5.4 µM"}
{"structure_string": "O=c1[nH]cc([C@@H]2O[C@H](CO)[C@@H](O)[C@H](O)[C@H]2O)c(=O)[nH]1", "IC50": "88.5 µM"}
